test: Maximum concentration in plasma was determined after intraperitoneal administration of 100 mg/kg in mice; format: ADME, organism-based; set-up: dose 100 mg/kg, route intraperitoneal; settings: mouse, ip
REPORTED ENDPOINT: Cmax (µg/mL)
One number for each entry, in µg/mL.

The value of Cmax measured for the compound O=C(Cc1ccccc1)Nc1c2c(nc3ccccc13)N(Cc1ccccc1)CC2 turned out to be 197

----------
system: MCF-7 (Homo sapiens); assay: Toxicity against MCF-7 cells
Assign Satisfied to entries whose Toxicity meets or exceeds 20 µM; assign Not satisfied to the rest.

Please review the entries below; each comes with its answer.
* O=C(Cc1ccccc1)Nc1c2c(nc3ccccc13)N(Cc1ccccc1)CC2 | Not satisfied
* Nc1c2c(nc3ccccc13)N(Cc1ccccc1)CC2 | Not satisfied
* O=C(Nc1c2c(nc3ccccc13)N(Cc1ccccc1)CC2)c1c(F)cccc1C(F)(F)F | Not satisfied
* O=C(Nc1c2c(nc3ccccc13)N(Cc1ccccc1)CC2)c1c(F)ccc(F)c1F | Satisfied
* Fc1ccc(CNc2c3c(nc4ccccc24)N(Cc2ccccc2)CC3)cc1 | Satisfied

q: Is the recorded value of Toxicity equal to or greater than 20 µM for this compound? O=C(CN1CCCCC1)Nc1c2c(nc3ccccc13)N(Cc1ccccc1)CC2
a: Not satisfied

q: Entry O=C(Nc1c2c(nc3ccccc13)N(Cc1ccccc1)CC2)c1ccc(F)c(C(F)(F)F)c1 : is its Toxicity no less than 20 µM?
a: Not satisfied

q: Given Fc1cccc(CNc2c3c(nc4ccccc24)N(Cc2ccccc2)CC3)c1 , state whether its Toxicity is at least 20 µM.
a: Satisfied

q: Could you please find out whether CCOC(=O)CNc1c2c(nc3ccccc13)N(Cc1ccccc1)CC2 has Toxicity that meets 20 µM or exceeds it?
a: Satisfied

q: Does Toxicity meet or surpass 20 µM for COc1cc(CNc2c3c(nc4ccccc24)N(Cc2ccccc2)CC3)cc(OC)c1 ?
a: Satisfied

Just for reference, ChEMBL document CHEMBL1149323 is where these values come from.
